- targetEntity: Opioid receptors; mu & delta (Homo sapiens) (UniProt P41143+P35372)
- Sequence (P35372 whole entry, looked up): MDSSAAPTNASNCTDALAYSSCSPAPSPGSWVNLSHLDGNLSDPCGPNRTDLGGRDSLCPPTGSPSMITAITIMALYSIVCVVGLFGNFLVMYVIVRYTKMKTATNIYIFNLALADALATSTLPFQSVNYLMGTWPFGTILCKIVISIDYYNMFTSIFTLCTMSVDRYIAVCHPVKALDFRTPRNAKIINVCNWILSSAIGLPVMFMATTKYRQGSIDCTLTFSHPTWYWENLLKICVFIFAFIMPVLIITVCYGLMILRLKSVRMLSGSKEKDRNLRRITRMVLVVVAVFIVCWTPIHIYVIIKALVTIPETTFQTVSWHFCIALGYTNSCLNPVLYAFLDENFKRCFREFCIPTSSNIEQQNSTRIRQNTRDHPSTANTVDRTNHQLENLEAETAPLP
- Sequence (P41143 whole entry, looked up): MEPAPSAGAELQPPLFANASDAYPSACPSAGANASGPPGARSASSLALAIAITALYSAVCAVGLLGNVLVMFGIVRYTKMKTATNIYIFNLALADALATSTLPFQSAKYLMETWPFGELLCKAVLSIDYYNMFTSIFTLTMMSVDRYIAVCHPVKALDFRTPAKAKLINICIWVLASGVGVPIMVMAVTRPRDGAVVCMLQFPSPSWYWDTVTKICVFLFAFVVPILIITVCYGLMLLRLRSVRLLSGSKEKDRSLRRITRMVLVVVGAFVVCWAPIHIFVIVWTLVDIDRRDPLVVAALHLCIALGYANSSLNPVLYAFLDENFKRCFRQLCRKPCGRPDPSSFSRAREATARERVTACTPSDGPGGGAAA
- assayMethodText: Selectivity ratio for mu and delta opioid receptor binding
- Assay type: protein assay
reportedProperty: Selectivity ratio
Number, no unit, nothing else.

// solved cases for Selectivity ratio follow
C=C(C)CN1CCC23c4c5ccc(O)c4O[C@H]2c2[nH]c4ccccc4c2C[C@@]3(O)C1C5 (stereo partly drawn)
1700
C=C(C)CN1CCC23c4c5ccc(O)c4O[C@H]2c2oc4ccccc4c2C[C@@]3(O)C1C5 (stereo partly drawn)
160
C=C(C)CN1CCC23c4c5ccc(OC)c4O[C@H]2c2ncc(-c4ccc(Cl)cc4)cc2C[C@@]3(O)C1C5 (stereo partly drawn)
23

For the next question, use this compound.
Asked: Sample C=C(C)CN1CCC23c4c5ccc(O)c4O[C@H]2C(=O)C2(Cc4ccccc4C2)C[C@@]3(O)C1C5 (stereo partly drawn) — what was its Selectivity ratio?
Given back: 49

---

Below are Ki values recorded for Kappa-type opioid receptor (Homo sapiens, UniProt P41145).
Report only the number, with the unit µM understood.

// solved cases for Ki follow
C=C(C)CN1CCC23c4c5ccc(O)c4O[C@H]2c2[nH]c4ccccc4c2C[C@@]3(O)C1C5 (stereo partly specified)
3.8
C=C(C)CN1CCC23c4c5ccc(OC)c4O[C@H]2c2[nH]ncc2C[C@@]3(O)C1C5 (stereo partly specified)
3.1
C=C(C)CN1CCC23c4c5ccc(O)c4O[C@H]2C(=O)C2(Cc4ccccc4C2)C[C@@]3(O)C1C5 (stereo partly specified)
1

Asked: Checklist item: Ki tested on Kappa-type opioid receptor (Homo sapiens, UniProt P41145), entry C=C(C)CN1CCC23c4c5ccc(OC)c4O[C@H]2c2ncc(-c4ccc(Cl)cc4)cc2C[C@@]3(O)C1C5 (stereo partly specified) , value?
Given back: 3.2

---

- targetEntity: Opioid receptors; mu & delta (Homo sapiens) (UniProt P41143+P35372)
- assayMethodText: Selectivity ratio for mu and delta opioid receptor binding
- Assay type: protein assay
reportedProperty: Selectivity ratio

C=C(C)CN1CCC23c4c5ccc(OC)c4O[C@H]2c2[nH]c4ccccc4c2C[C@@]3(O)C1C5 (some centres undefined)
> 12

Asked: Sample C=C(C)CN1CCC23c4c5ccc(O)c4O[C@H]2c2ncc(-c4ccc(Cl)cc4)cc2C[C@@]3(O)C1C5 (some centres undefined) — what was its Selectivity ratio?
Given back: > 380

Asked: Sample C=C(C)CN1CCC23c4c5ccc(OC)c4O[C@H]2C(=O)/C(=C/c2ccccc2)C[C@@]3(O)C1C5 (some centres undefined) — what was its Selectivity ratio?
Given back: > 1

Asked: Sample C=C(C)CN1CCC23c4c5ccc(OC)c4O[C@H]2c2n[nH]cc2C[C@@]3(O)C1C5 (some centres undefined) — what was its Selectivity ratio?
Given back: > 2
